# System: Plasmodium falciparum
# procedure-details: Antimalarial activity against multidrug-resistant Plasmodium falciparum TM91C235 assessed as inhibition of [3H]hypoxanthine uptake
# Type: functional, organism-based
pIC50: −log10 of the molar value.
Label Yes when pIC50 >= 7; otherwise No.

{"columns": ["molecule", "classification"],
 "data": [
  ["Cl.Cl.Nc1nccc2ccc(NCc3ccccc3)cc12", "No"],
  ["Nc1nc(N)c2cc(NCc3cccc(Br)c3)ccc2n1", "Yes"],
  ["OC(c1cc(C(F)(F)F)nc2c(C(F)(F)F)cccc12)C1CCCCN1 (stereo not drawn)", "Yes"],
  ["Cl.Cl.Cl.Nc1nccc2ccc(NCc3ccc(Cl)cc3)cc12", "No"]
]}
